test system: HIV strain C; test: Cellular anti-HIV assay, clinically isolated mutant strain C; format: cell-based; settings: FR=EC50 (mutant strain)/EC50 (HIV-1 strain LAI)
Kind request: treat 7 as inclusive, so C (FR towards mutant C) at 7 or higher is Satisfied, anything lower is Not satisfied.

CC(C)CN(CC(O)C(Cc1ccccc1)NC(=O)OC1COC2OCCC12)S(=O)(=O)c1ccc(-c2coc(-c3ccc([N+](=O)[O-])cc3)n2)cc1 (centres unmarked)	Satisfied
CC(C)CN(CC(O)C(Cc1ccccc1)NC(=O)OC1COC2OCCC12)S(=O)(=O)c1ccc(-c2csc(NCCCN(C)C)n2)cc1 (centres unmarked)	Not satisfied
CC(=O)Nc1nc(-c2ccc(S(=O)(=O)N(CC(C)C)CC(O)C(Cc3ccccc3)NC(=O)OC3COC4OCCC34)cc2)cs1 (centres unmarked)	Satisfied
CC(C)CN(CC(O)C(Cc1ccccc1)NC(=O)OC1COC2OCCC12)S(=O)(=O)c1ccc(-c2c[nH]c(NC(=O)OC3COC4OCCC34)n2)cc1 (centres unmarked)	Not satisfied
CCCc1nc(-c2ccc(S(=O)(=O)N(CC(C)C)CC(O)C(Cc3ccccc3)NC(=O)OC3COC4OCCC34)cc2)co1 (centres unmarked)	Not satisfied
CC(=O)Nc1nc(-c2ccc(S(=O)(=O)N(CC(C)C)CC(O)C(Cc3ccccc3)NC(=O)OC3COC4OCCC34)cc2)c[nH]1 (centres unmarked)	Not satisfied
CC(C)Cc1nc(-c2ccc(S(=O)(=O)N(CC(C)C)CC(O)C(Cc3ccccc3)NC(=O)OC3COC4OCCC34)cc2)co1 (centres unmarked)	Not satisfied
CC(C)CN(CC(O)C(Cc1ccccc1)NC(=O)OC1COC2OCCC12)S(=O)(=O)c1ccc(-c2csc(Nc3ccncc3)n2)cc1 (centres unmarked)	Not satisfied

**Q:** Reported C (FR towards mutant C) at or above 7? Cc1nc(-c2ccc(S(=O)(=O)N(CC(C)C)CC(O)C(Cc3ccccc3)NC(=O)OC3COC4OCCC34)cc2)co1 (centres unmarked)
**A:** Satisfied

**Q:** hey, is C (FR towards mutant C) for this one >= 7? CC(C)CN(CC(O)C(Cc1ccccc1)NC(=O)OC1COC2OCCC12)S(=O)(=O)c1ccc(-c2coc(-c3ccc(Br)cc3)n2)cc1 (centres unmarked)
**A:** Not satisfied

**Q:** Is C (FR towards mutant C) at least 7? Consider CC(=O)OC(c1ccccc1)c1nc(-c2ccc(S(=O)(=O)N(CC(C)C)CC(O)C(Cc3ccccc3)NC(=O)OC3COC4OCCC34)cc2)co1 (centres unmarked)
**A:** Not satisfied

**Q:** Determine whether this compound has C (FR towards mutant C) no lower than 7: CC(C)CN(CC(O)C(Cc1ccccc1)NC(=O)OC1COC2OCCC12)S(=O)(=O)c1ccc(-c2coc(-c3cccs3)n2)cc1 (centres unmarked)
**A:** Not satisfied

**Q:** Would you say CC(C)CN(CC(O)C(Cc1ccccc1)NC(=O)OC1COC2OCCC12)S(=O)(=O)c1ccc(-c2coc(-c3ccc(C#N)cc3)n2)cc1 (centres unmarked) shows C (FR towards mutant C) at minimum 7?
**A:** Not satisfied

* * *

Recorded Tox (pCC50) by entry
system: mock-infected MT4 cells; assay: Toxicity on mock-infected cells (MTT)

Below: 5 molecules and their reported Tox (pCC50).
Cc1cc(-c2nc(-c3ccc(S(=O)(=O)N(CC(C)C)CC(O)C(Cc4ccccc4)NC(=O)OC4COC5OCCC45)cc3)co2)no1 (stereo not shown)	<4.49
CC(=O)OC(c1ccccc1)c1nc(-c2ccc(S(=O)(=O)N(CC(C)C)CC(O)C(Cc3ccccc3)NC(=O)OC3COC4OCCC34)cc2)co1 (stereo not shown)	<4.0
CC(C)Cc1nc(-c2ccc(S(=O)(=O)N(CC(C)C)CC(O)C(Cc3ccccc3)NC(=O)OC3COC4OCCC34)cc2)co1 (stereo not shown)	<4.49
Cc1nc(-c2ccc(S(=O)(=O)N(CC(C)C)CC(O)C(Cc3ccccc3)NC(=O)OC3COC4OCCC34)cc2)co1 (stereo not shown)	<4.0
CC(C)CN(CC(O)C(Cc1ccccc1)NC(=O)OC1COC2OCCC12)S(=O)(=O)c1ccc(-c2coc(-c3ccc(C#N)cc3)n2)cc1 (stereo not shown)	<4.49

**Q:** I would be grateful if you could share the reported Tox (pCC50) for CCCc1nc(-c2ccc(S(=O)(=O)N(CC(C)C)CC(O)C(Cc3ccccc3)NC(=O)OC3COC4OCCC34)cc2)co1 (stereo not shown) .
**A:** <4.49

**Q:** What measured Tox (pCC50) goes with CC(C)CN(CC(O)C(Cc1ccccc1)NC(=O)OC1COC2OCCC12)S(=O)(=O)c1ccc(-c2coc(COCc3ccccc3)n2)cc1 (stereo not shown) ?
**A:** <4.0

**Q:** Field request: Tox (pCC50) | item: CC(C)CN(CC(O)C(Cc1ccccc1)NC(=O)OC1COC2OCCC12)S(=O)(=O)c1ccc(-c2csc(NCCCN(C)C)n2)cc1 (stereo not shown)
**A:** 4.69

**Q:** What Tox (pCC50) value was documented for this molecule, CC(C)CN(CC(O)C(Cc1ccccc1)NC(=O)OC1COC2OCCC12)S(=O)(=O)c1ccc(-c2csc(N)n2)cc1 (stereo not shown) ?
**A:** 4.07

**Q:** Need Tox (pCC50), item CC(C)CN(CC(O)C(Cc1ccccc1)NC(=O)OC1COC2OCCC12)S(=O)(=O)c1ccc(-c2coc(-c3cccs3)n2)cc1 (stereo not shown)
**A:** <4.49

* * *

test system: HIV strain D; test: Cellular anti-HIV assay, clinically isolated mutant strain D; format: cell-based; details: FR=EC50 (mutant strain)/EC50 (HIV-1 strain LAI)
MEASUREMENT LABEL: D (FR towards mutant D)
Note: the reply should be a number with no unit written.

Guide cases for D (FR towards mutant D), answers given:
CC(C)CN(CC(O)C(Cc1ccccc1)NC(=O)OC1COC2OCCC12)S(=O)(=O)c1ccc(-c2coc(-c3cccs3)n2)cc1 (stereo not drawn)	13
CC(=O)Nc1nc(-c2ccc(S(=O)(=O)N(CC(C)C)CC(O)C(Cc3ccccc3)NC(=O)OC3COC4OCCC34)cc2)cs1 (stereo not drawn)	26

Proceeding to the next compound to report its D (FR towards mutant D).
**Q:** Reported D (FR towards mutant D), compound CC(C)CN(CC(O)C(Cc1ccccc1)NC(=O)OC1COC2OCCC12)S(=O)(=O)c1ccc(-c2coc(-c3ccc(Br)cc3)n2)cc1 (stereo not drawn) : ____
**A:** 12

* * *

tested on: HIV-1 strain LAI; assay: Cellular anti-HIV assay (MTT), wild type strain; format: cell-based; conditions: wild type HIV-LAI strain; Table 8
Listing of entries alongside the reported WT (pEC50 against wild type HIV-LAI strain).

**Q:** Please provide the recorded WT (pEC50 against wild type HIV-LAI strain) for CC(C)CN(CC(O)C(Cc1ccccc1)NC(=O)OC1COC2OCCC12)S(=O)(=O)c1ccc(-c2csc(N)n2)cc1 (stereo not shown) [Compound 2] , tested on HIV-1 strain LAI.
**A:** 8.5

**Q:** # get_value(readout= WT (pEC50 against wild type HIV-LAI strain), system= HIV-1 strain LAI) for CC(C)CN(CC(O)C(Cc1ccccc1)NC(=O)OC1COC2OCCC12)S(=O)(=O)c1ccc(-c2coc(COCc3ccccc3)n2)cc1 (stereo not shown) [Compound 39]
**A:** 8.1

**Q:** Form entry - test system: HIV-1 strain LAI; read-out: WT (pEC50 against wild type HIV-LAI strain); compound: CC(C)CN(CC(O)C(Cc1ccccc1)NC(=O)OC1COC2OCCC12)S(=O)(=O)c1ccc(-c2coc(-c3ccc(Br)cc3)n2)cc1 (stereo not shown) [Compound 51]
**A:** 7.5

**Q:** Give the reported WT (pEC50 against wild type HIV-LAI strain) for CC(C)CN(CC(O)C(Cc1ccccc1)NC(=O)OC1COC2OCCC12)S(=O)(=O)c1ccc(-c2c[nH]c(NC(=O)OC3COC4OCCC34)n2)cc1 (stereo not shown) [Compound 33] (system: HIV-1 strain LAI).
**A:** 6.7

**Q:** Lab request: please report WT (pEC50 against wild type HIV-LAI strain) under test system HIV-1 strain LAI for CC(=O)OC(c1ccccc1)c1nc(-c2ccc(S(=O)(=O)N(CC(C)C)CC(O)C(Cc3ccccc3)NC(=O)OC3COC4OCCC34)cc2)co1 (stereo not shown) [Compound 48]
**A:** 8.3

**Q:** Notebook entry, HIV-1 strain LAI assay: WT (pEC50 against wild type HIV-LAI strain) of CC(C)CN(CC(O)C(Cc1ccccc1)NC(=O)OC1COC2OCCC12)S(=O)(=O)c1ccc(-c2coc(-c3ccc(C#N)cc3)n2)cc1 (stereo not shown) [Compound 52] = ?
**A:** 8.1

**Q:** Kindly state the measured WT (pEC50 against wild type HIV-LAI strain) obtained for CC(C)CN(CC(O)C(Cc1ccccc1)NC(=O)OC1COC2OCCC12)S(=O)(=O)c1ccc(-c2coc(-c3ccc([N+](=O)[O-])cc3)n2)cc1 (stereo not shown) [Compound 43] with HIV-1 strain LAI.
**A:** 7.9
